Origin of the recorded values: paper PMC13408504

Molecular target: Mac1 of SARS-CoV-2 (Severe acute respiratory syndrome coronavirus 2)
Experiment: Fluorimetric microplate assay for Mac1 activity (α-NAD+ hydrolysis, post-reaction derivatisation)
Assay type: biochemical
result-type: Inhibition of Mac1 (in words)

entry-smiles: Nc1ncnc2c1ncn2[C@@H]1O[C@H](COP(=O)(O)O)[C@@H](O)[C@H]1O
result-type: Inhibition of Mac1 (in words)
val: showed no inhibition
--
entry-smiles: Nc1ncnc2c1ncn2[C@@H]1O[C@H](CO)[C@@H](O)[C@H]1O
result-type: Inhibition of Mac1 (in words)
val: showed no inhibition

====

Target: Mac1 of SARS-CoV-2 (Severe acute respiratory syndrome coronavirus 2)
Test: Fluorimetric microplate assay for Mac1 activity (α-NAD+ hydrolysis, post-reaction derivatisation)
Format: biochemical
pIC50: −log10 of the molar value.
result-type: pIC50

compound: Nc1nc(F)nc2c1ncn2C1OC(COP(=O)(O)OP(=O)(O)OCC2OC(O)C(O)C2O)C(O)C1O (centres unmarked)
val: 3.72

compound: Nc1ncnc2c1ncn2[C@@H]1O[C@H](COP(=O)(O)OP(=O)(O)S)[C@@H](O)[C@H]1O (some centres unmarked) [compound 35, adenosine-5′-O-(2-thiodiphosphate)]
val: 2.41

compound: Nc1ncnc2c1cc(Br)n2C1OC(COP(=O)(O)OP(=O)(O)OCC2OC(O)C(O)C2O)C(O)C1O (centres unmarked)
val: 4.42

compound: N#C[C@@]1(c2ccc3c(N)ncnn23)O[C@H](COP(=O)(O)O)[C@@H](O)[C@H]1O [compound 40, GS-441524-monophosphate]
val: 4.36

compound: Nc1ncnc2c1ccn2C1OC(COP(=O)(O)OP(=O)(O)OCC2OC(O)C(O)C2O)C(O)C1O (centres unmarked)
val: 4.84

====

Experiment: physchem
Conditions: pH 7.3
result-type: half-life (h)

compound: CCCCCCCCCCCC(=O)Oc1ccc(COP(=O)(OC)OP(=O)(O)OC[C@H]2O[C@@](C#N)(c3ccc4c(N)ncnn34)[C@H](O)[C@@H]2O)cc1 (stereo partly shown)
readout-units: h
val: 61

====

Biological target: UniProt:P0DTD1
Experiment: biochemical
Conditions: pIC50 (±SD) for Mac1 inhibition

compound: Nc1ncnc2c1nc(-c1ccsc1)n2C1OC(COP(=O)(O)OP(=O)(O)OCC2OC(O)C(O)C2O)C(O)C1O (stereo not shown)
IC50, µM: 251
